target: CUZD1; experiment: pooled miR-30 sensor sort-seq; sequence = guide strand; conditions: shRNA; further: reference of the scale not given here
Would you mind labelling by sensor-assay potency score (higher = more potent)? At or over -0.4 is Condition met, under is Condition not met.

Examples with answers:
IN: Determine whether this sequence has sensor-assay potency score (higher = more potent) no lower than -0.4: `TTGAAGTTTAGTTTTATCTTGT`
OUT: Condition met

IN: Determine whether this sequence has sensor-assay potency score (higher = more potent) no lower than -0.4: `TTTGTATTACATCATCTTCTGT`
OUT: Condition not met

IN: Determine whether this sequence has sensor-assay potency score (higher = more potent) no lower than -0.4: `TATCTTGTAATCTTTCTCCACT`
OUT: Condition not met

IN: Determine whether this sequence has sensor-assay potency score (higher = more potent) no lower than -0.4: `TTCTGATTGTACCACATCCATT`
OUT: Condition not met

IN: Determine whether this sequence has sensor-assay potency score (higher = more potent) no lower than -0.4: `TTACACTGCAGATACACAGAGC`
OUT: Condition not met

IN: Determine whether this sequence has sensor-assay potency score (higher = more potent) no lower than -0.4: `TTTGACTTTGTATTACATCATC`
OUT: Condition not met

Moving on to the next sequence.
IN: Determine whether this sequence has sensor-assay potency score (higher = more potent) no lower than -0.4: `AAATACAGGAACATAGTCGTTT`
OUT: Condition met

* * *

biological target: ZNF512B; test: pooled miR-30 sensor sort-seq; sequence = guide strand; details: shRNA
Would you mind labelling by sensor-assay potency score (higher = more potent)? At or over -0.2 is label 1, under is label 0.

IN: Determine whether this sequence has sensor-assay potency score (higher = more potent) no lower than -0.2: `TAGTGTGGTAGTTGAGGCCGGC`
OUT: label 0

IN: Determine whether this sequence has sensor-assay potency score (higher = more potent) no lower than -0.2: `TTTTTCTTCCCTTCTGTCTTGT`
OUT: label 1

IN: Determine whether this sequence has sensor-assay potency score (higher = more potent) no lower than -0.2: `TGAGTTTGGACACTTCACCCTC`
OUT: label 1

IN: Determine whether this sequence has sensor-assay potency score (higher = more potent) no lower than -0.2: `TTGCTGACTCCCACCTTCCGGC`
OUT: label 0

IN: Determine whether this sequence has sensor-assay potency score (higher = more potent) no lower than -0.2: `TTCGTAACTGTCACAAGCTTTG`
OUT: label 0

New cases:
IN: Determine whether this sequence has sensor-assay potency score (higher = more potent) no lower than -0.2: `TTCGGAACCAGTTCTCTGCGTG`
OUT: label 1

IN: Determine whether this sequence has sensor-assay potency score (higher = more potent) no lower than -0.2: `TTTCGTAACTGTCACAAGCTTT`
OUT: label 0

IN: Determine whether this sequence has sensor-assay potency score (higher = more potent) no lower than -0.2: `TTGGACTTGAACTGCTTCCGGC`
OUT: label 1

* * *

target: NCAPG2; assay: pooled miR-30 sensor sort-seq; sequence = guide strand; conditions: shRNA
quantityName: sensor-assay potency score (higher = more potent)
One number for each entry.

IN: Output measured sensor-assay potency score (higher = more potent) for this item: `TTGATGGTGAAAGTAACTCAGA`
OUT: -1.15

IN: Output measured sensor-assay potency score (higher = more potent) for this item: `AACATCTTTACACACAGTCAGG`
OUT: -1.69

IN: Output measured sensor-assay potency score (higher = more potent) for this item: `TAGAACTCTGTAGTTTTCGTTC`
OUT: -0.463

New cases:
IN: Output measured sensor-assay potency score (higher = more potent) for this item: `TATAATAACACATTCCAGTAGG`
OUT: -0.388

The values you see were collected from the OligoGym collection.
